Parameter growth inhibition: see the listing below.
Assay: NCI Yeast Anticancer Drug Screen. Data for the bub3 strain (AID 167)
Conditions: S. cerevisiae bub3 mutant strain, at 50.0 µM, hits give high values
The panel holds about 79,000 compounds, 15% with a hit somewhere; the sample as a whole holds those more often. The source made the active and inactive calls. Rule as the data show it: active = growth inhibition above about 70%; inactive = the rest.

Answered cases to consult:
Molecule	Quantity	Obs value
OCc1c(CO)c2cccn2c2c1cnn2-c1ccccc1	growth inhibition	-8.2% (inactive)
CC1=CC2OC3C(OC(=O)c4ccccc4)C(OC(=O)c4ccccc4)C(C)(C2(COC(=O)c2ccccc2)CC1)C31CO1 (centres undefined)	growth inhibition	4.85% (inactive)
COc1cccc(C(=O)CCN(C)C)c1	growth inhibition	18.1% (inactive)

// next item, growth inhibition requested
## Task Bench note: what growth inhibition did "CC(=O)Nc1nc(NC(C)=O)c2[nH]c(CO)nc2n1" show?
## Result -61.3% (inactive)
